experiment: Single-dose oral administration pharmacokinetic study in SD rats; assay type: in vivo; details: Sprague-Dawley, rat, male SD rats, 5 mg/kg, plasma
property.measured: Cmax (ng/mL)

P. C[C@H]1c2c(nn(-c3ccc(F)c4c3CCC4)c2-n2ccn(-c3ccc4c(cnn4C4CC4)c3F)c2=O)CCN1C(=O)c1cc2cc(C3CCOCC3)ccc2n1[C@@]1(c2noc(=O)[nH]2)C[C@@H]1C
Q. C[C@H]1c2c(nn(-c3ccc(F)c(C4CC4)c3)c2-n2ccn(-c3ccc4c(cnn4C4CC4)c3F)c2=O)CCN1C(=O)c1cc2cc(C3CCOCC3)ccc2n1[C@@]1(c2noc(=O)[nH]2)C[C@@H]1C
Task for the reader: decide whether P or Q has the larger Cmax. Please indicate the selected item by its label. Q
